Task for the reader: assign each of the following molecules its reported Liver stability Rat (% PCP) 5 min.
Tested on: rat liver microsomes
Experiment: Liver microsome stability assay, rat
Assay type: in vitro ADME
Settings: 1 μM, 37° C., 5 min; parent compound remaining; criterion >50%
Your answer should be a plain number; it is taken to be in % PCP.

Task: State the recorded Liver stability Rat (% PCP) 5 min for this entry: CC(C)NC(=O)c1nn(-c2ccc(F)cc2)c(=O)c2c(N)scc12 [Compound 14]
Output: 92.8

Task: Looking for the measured Liver stability Rat (% PCP) 5 min of COc1ccc(-n2nc(C(=O)N3CCC(CCF)CC3)c3csc(N)c3c2=O)cc1 [Compound 56] , can you help?
Output: 94.88

Task: Record request: Liver stability Rat (% PCP) 5 min value, item CC(C)NC(=O)c1nn(-c2ccc(OCCF)cc2)c(=O)c2c(N)scc12 [Compound 38]
Output: 81.7

Task: What value of measured Liver stability Rat (% PCP) 5 min is listed for CC(C)NC(=O)c1nn(-c2ccc(O)cc2)c(=O)c2c(N)scc12 [Compound 58] ?
Output: 90.03

Task: Any idea what Liver stability Rat (% PCP) 5 min was measured for CC(C)NC(=O)c1nn(-c2ccc(Cl)cc2)c(=O)c2c(N)scc12 [ATPZ, reference compound] ?
Output: 97.06

Task: # input molecule: CC(C)NC(=O)c1nn(-c2ccc([N+](=O)[O-])cc2)c(=O)c2c(N)scc12 [Compound 105] ; wanted: its Liver stability Rat (% PCP) 5 min
Output: 81.29

Task: Would you mind telling me what Liver stability Rat (% PCP) 5 min value was observed for COc1ccc(-n2nc(C(=O)N3CCC(CF)CC3)c3csc(N)c3c2=O)cc1.Cl [Compound 81] ?
Output: 60.12

Task: Report Liver stability Rat (% PCP) 5 min for COc1ccc(-n2nc(C(=O)N3CCN(c4cccc(F)n4)CC3)c3csc(N)c3c2=O)cc1 [Compound 90] please.
Output: 72.67

----------
Test system: tau+ NFTs
Assay: Tissue binding assay (fluorescence), NFTs in human AD tissue sections
Parameters: key: −: No staining; +: weak staining; ++: moderate staining; +++: intense staining
Details: Table 2; 1 μM, human AD tissue
Measured endpoint: NFTs (staining)

| Molecule | NFTs (staining) |
| --- | --- |
| CC(C)NC(=O)c1nn(-c2ccc([N+](=O)[O-])cc2)c(=O)c2c(N)scc12 [Compound 105] | − |
| CC(C)NC(=O)c1nn(-c2ccc(OCCF)cc2)c(=O)c2c(N)scc12 [Compound 38] | + |
| CC(C)NC(=O)c1nn(-c2ccc(F)cc2)c(=O)c2c(N)scc12 [Compound 14] | − |
| CC(C)NC(=O)c1nn(-c2ccc(Cl)cc2)c(=O)c2c(N)scc12 [ATPZ, reference compound] | + |
| [11CH3]Nc1ccc(-c2nc3ccc(O)cc3s2)cc1 [PiB, Pittsburgh compound B, reference compound] | − |

# evaluate next
Task: For the molecule shown here, CC(=C(C#N)C#N)c1ccc2cc(N(C)CCF)ccc2c1 [FDDNP, reference compound] , give the reported NFTs (staining).
Output: +

----------
Tested on: tau+ NFTs
Experiment: Tissue binding assay (fluorescence), NFTs in human AD tissue sections
Parameters: key: −: No staining; +: weak staining; ++: moderate staining; +++: intense staining
Conditions: Table 2; 100 μM, human AD tissue
Measured endpoint: NFTs (staining)

// known answers, use as guide
| Compound | Measurement target | Measured endpoint | Reported value |
| --- | --- | --- | --- |
| CC(C)NC(=O)c1nn(-c2ccc(Cl)cc2)c(=O)c2c(N)scc12 [ATPZ, reference compound] | tau+ NFTs | NFTs (staining) | +++ |
| [11CH3]Nc1ccc(-c2nc3ccc(O)cc3s2)cc1 [PiB, Pittsburgh compound B, reference compound] | tau+ NFTs | NFTs (staining) | +++ |
| COc1ccc(-n2nc(C(=O)NC(C)C)c3csc(N(C)C)c3c2=O)cc1 | tau+ NFTs | NFTs (staining) | + |
| CC(C)NC(=O)c1nn(-c2ccc([N+](=O)[O-])cc2)c(=O)c2c(N)scc12 | tau+ NFTs | NFTs (staining) | ++ |
| CC(C)NC(=O)c1nn(-c2ccc(OCCF)cc2)c(=O)c2c(N)scc12 | tau+ NFTs | NFTs (staining) | +++ |

Task: Item under review: CC(=C(C#N)C#N)c1ccc2cc(N(C)CCF)ccc2c1 [FDDNP, reference compound] . Reported NFTs (staining)?
Output: +++

Task: # input compound: CC(C)NC(=O)c1nn(-c2ccc(O)cc2)c(=O)c2c(NC(=O)OC(C)(C)C)scc12 ; wanted: its NFTs (staining)
Output: −

Task: Reported NFTs (staining) for CC(C)NC(=O)c1nn(-c2ccc(F)cc2)c(=O)c2c(N)scc12 : what is it?
Output: +

Task: Name the recorded NFTs (staining) for COc1ccc(-n2nc(C(=O)N3CCN(c4cccc(F)n4)CC3)c3csc(NC(=O)OC(C)(C)C)c3c2=O)cc1 .
Output: −

----------
Tested on: Aβ+ plaques
Test: Tissue binding assay (fluorescence), plaques in human AD tissue sections
Parameters: key: −: No staining; +: weak staining; ++: moderate staining; +++: intense staining
Conditions: Table 2; 100 μM, human AD tissue
Measured endpoint: Plaques (staining)

// known answers, use as guide
| Compound | Measured endpoint | Reported value |
| --- | --- | --- |
| COc1ccc(-n2nc(C(=O)N3CCN(c4cccc(F)n4)CC3)c3csc(NC(=O)OC(C)(C)C)c3c2=O)cc1 | Plaques (staining) | − |
| CC(C)NC(=O)c1nn(-c2ccc(OCCF)cc2)c(=O)c2c(N)scc12 | Plaques (staining) | ++ |
| CC(=C(C#N)C#N)c1ccc2cc(N(C)CCF)ccc2c1 [FDDNP, reference compound] | Plaques (staining) | +++ |
| CC(C)NC(=O)c1nn(-c2ccc(Cl)cc2)c(=O)c2c(N)scc12 [ATPZ, reference compound] | Plaques (staining) | + |
| COc1ccc(-n2nc(C(=O)N3CCN(c4cccc(F)n4)CC3)c3csc(N)c3c2=O)cc1 | Plaques (staining) | − |

Task: Reported Plaques (staining), compound COc1ccc(-n2nc(C(=O)NC(C)C)c3csc(N(C)C)c3c2=O)cc1 : ____
Output: ++

Task: Consider the compound CC(C)NC(=O)c1nn(-c2ccc([N+](=O)[O-])cc2)c(=O)c2c(N)scc12 and give its measured Plaques (staining).
Output: ++

Task: Which measured Plaques (staining) value corresponds to CC(C)NC(=O)c1nn(-c2ccc(F)cc2)c(=O)c2c(N)scc12 ?
Output: +

Task: Give its Plaques (staining) value. Item: [11CH3]Nc1ccc(-c2nc3ccc(O)cc3s2)cc1 [PiB, Pittsburgh compound B, reference compound]
Output: +++

These data points were gathered from patent US20150004100A1.
